# target.under.test: Human G288S SLACK (Homo sapiens, UniProt Q5JUK3, G269S)
# Sequence (Q5JUK3 1-1235 isoform Q5JUK3-3 G288S): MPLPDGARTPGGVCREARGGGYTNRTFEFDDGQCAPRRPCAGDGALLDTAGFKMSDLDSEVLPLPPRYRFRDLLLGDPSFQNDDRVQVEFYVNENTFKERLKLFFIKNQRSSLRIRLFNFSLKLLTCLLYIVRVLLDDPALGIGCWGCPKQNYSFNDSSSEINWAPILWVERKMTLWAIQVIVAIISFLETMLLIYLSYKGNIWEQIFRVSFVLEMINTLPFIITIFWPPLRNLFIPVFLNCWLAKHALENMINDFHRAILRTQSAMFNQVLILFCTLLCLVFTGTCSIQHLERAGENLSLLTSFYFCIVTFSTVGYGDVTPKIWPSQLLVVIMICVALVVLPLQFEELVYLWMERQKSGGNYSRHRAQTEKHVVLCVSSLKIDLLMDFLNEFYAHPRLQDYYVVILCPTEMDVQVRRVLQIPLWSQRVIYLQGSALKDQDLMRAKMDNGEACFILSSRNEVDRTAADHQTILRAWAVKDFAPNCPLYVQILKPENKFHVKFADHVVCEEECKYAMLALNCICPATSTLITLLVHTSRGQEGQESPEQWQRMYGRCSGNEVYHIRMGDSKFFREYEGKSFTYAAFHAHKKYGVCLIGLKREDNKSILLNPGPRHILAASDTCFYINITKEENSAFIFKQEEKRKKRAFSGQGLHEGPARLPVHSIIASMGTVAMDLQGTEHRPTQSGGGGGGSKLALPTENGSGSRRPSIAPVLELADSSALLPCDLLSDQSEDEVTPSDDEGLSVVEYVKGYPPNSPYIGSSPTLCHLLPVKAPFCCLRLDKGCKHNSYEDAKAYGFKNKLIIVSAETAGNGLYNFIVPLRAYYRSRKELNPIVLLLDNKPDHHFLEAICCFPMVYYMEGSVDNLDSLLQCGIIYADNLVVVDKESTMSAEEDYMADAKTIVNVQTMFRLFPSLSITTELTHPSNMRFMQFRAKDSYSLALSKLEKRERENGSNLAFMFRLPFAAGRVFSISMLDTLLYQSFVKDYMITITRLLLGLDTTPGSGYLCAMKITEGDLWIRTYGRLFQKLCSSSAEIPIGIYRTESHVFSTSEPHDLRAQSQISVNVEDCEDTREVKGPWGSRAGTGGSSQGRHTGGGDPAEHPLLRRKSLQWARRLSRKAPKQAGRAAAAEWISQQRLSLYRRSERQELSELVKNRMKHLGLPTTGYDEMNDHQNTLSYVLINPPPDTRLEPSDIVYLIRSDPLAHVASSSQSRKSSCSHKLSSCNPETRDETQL
# method: Whole-cell APC in CHO-K1 cells stably expressing human G288S SLACK
# experimental.context: APC, CHO-K1 cells; Human G288S SLACK
pIC50: −log10 of the molar value.
property.label: pIC50

[in] Record request: pIC50 value, item CN(c1ccc(C#N)cc1)c1ncc(NC(=O)C(C)(C)Oc2ccc(Cl)cc2)cn1 [Analog 66]
[out] < 5.00

====

Listing of recorded inhibition at 120 s, 10 µM by entry.
# target.under.test: hERG (Homo sapiens, UniProt Q12809)
# Construct: expressed in transfected cells; host or cells: HEK293
# Sequence (Q12809 whole entry): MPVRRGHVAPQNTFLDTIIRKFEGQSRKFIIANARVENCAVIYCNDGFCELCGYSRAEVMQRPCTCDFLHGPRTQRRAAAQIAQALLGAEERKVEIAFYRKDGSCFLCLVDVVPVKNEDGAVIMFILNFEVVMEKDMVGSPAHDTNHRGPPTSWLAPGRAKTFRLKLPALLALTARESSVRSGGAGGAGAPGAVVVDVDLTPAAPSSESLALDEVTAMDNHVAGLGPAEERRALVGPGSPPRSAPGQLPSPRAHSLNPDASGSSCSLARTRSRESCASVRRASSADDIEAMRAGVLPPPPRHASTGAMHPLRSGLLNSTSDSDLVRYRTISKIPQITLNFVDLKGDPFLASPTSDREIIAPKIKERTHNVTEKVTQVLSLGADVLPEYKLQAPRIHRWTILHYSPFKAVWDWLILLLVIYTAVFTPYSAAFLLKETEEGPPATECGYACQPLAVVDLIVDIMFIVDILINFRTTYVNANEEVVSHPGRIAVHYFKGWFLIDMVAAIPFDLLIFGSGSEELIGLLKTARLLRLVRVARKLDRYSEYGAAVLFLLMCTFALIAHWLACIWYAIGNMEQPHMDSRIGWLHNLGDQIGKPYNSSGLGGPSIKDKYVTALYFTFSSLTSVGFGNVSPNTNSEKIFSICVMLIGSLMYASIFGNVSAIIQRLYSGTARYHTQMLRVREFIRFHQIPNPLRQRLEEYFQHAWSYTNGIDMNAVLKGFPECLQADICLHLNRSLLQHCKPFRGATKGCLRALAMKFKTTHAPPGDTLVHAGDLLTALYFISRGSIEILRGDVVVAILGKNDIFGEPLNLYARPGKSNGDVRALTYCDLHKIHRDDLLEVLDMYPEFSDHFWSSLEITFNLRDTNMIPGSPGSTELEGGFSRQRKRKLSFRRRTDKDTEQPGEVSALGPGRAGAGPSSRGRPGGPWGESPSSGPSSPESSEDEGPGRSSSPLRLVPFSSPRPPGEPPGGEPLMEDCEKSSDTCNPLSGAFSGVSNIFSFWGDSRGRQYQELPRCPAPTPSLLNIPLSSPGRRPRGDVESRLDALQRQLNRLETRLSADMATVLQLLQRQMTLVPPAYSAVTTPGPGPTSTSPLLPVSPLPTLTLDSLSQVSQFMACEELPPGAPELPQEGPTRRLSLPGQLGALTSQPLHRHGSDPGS
# method: Tl+-flux assay in HEK-293 cells, hERG
# Format: cell-based
# experimental.context: HEK293 cells stably expressing hERG, pH 7.3, 10 µM test compound, relative to control bepridil, read-out: Percent Inhibition ± SEM, hERG
# Procedure: Having executed our plan to prepare analogs across the identified regions of the chemotype (Figure 2), we identified two analogs for further profiling and evaluation. […] The Tl^+ flux assays were conducted as previously described, with modifications optimized for individual cell lines as described below. […] Cell plates were then loaded onto a Panoptic kinetic imaging plate reader (WaveFront Biosciences, Franklin, TN, USA). […]
Kindly write the number and append the unit.

1. CN(c1ccc(C#N)cc1)c1ncc(NC(=O)C(C)(C)Oc2ccc(Cl)cc2)cn1 ... 13%

Okay, next one:
[in] Record request: inhibition at 120 s, 10 µM value, item `CC(C)(Oc1ccc(Cl)cc1)C(=O)Nc1cnc(Oc2c(F)cccc2F)nc1`
[out] 0.9%
